# testDescription: Multiple ascending dose study: plasma pharmacokinetics
# Type: in vivo
# conditionInfo: human, po, 10 mg, Day 14, 10 mg QD oral, read-out: AUC(0-24 h) GM (% CV)
propertyLabel: AUC(0-t)
Include the unit after the number when you answer.

Ask: Entry COc1ncc(C)c(-c2ccc3c(c2)[nH]c(=O)c2cnn([C@H]4CCOC4)c23)c1C has what AUC(0-t)?
Result: 1900 ng·h/mL

====

# testDescription: Multiple ascending dose study: plasma pharmacokinetics
# Type: in vivo
# conditionInfo: human, po, 400 mg, Day 1, 400 mg QD oral, Japanese, read-out: Cmax GM (% CV)
propertyLabel: Cmax

Ask: Entry COc1ncc(C)c(-c2ccc3c(c2)[nH]c(=O)c2cnn([C@H]4CCOC4)c23)c1C [Compound A] has what Cmax?
Result: 1510 ng/mL

====

# testDescription: Multiple ascending dose study: plasma pharmacokinetics
# Type: in vivo
# conditionInfo: human, po, 100 mg, Day 1, 100 mg QD oral, read-out: Cmax Median
# Procedure: Four sequential cohorts of healthy participants (≥50 years and ≤85 years old) were treated with multiple ascending doses of Compound A up to the maximum tolerated dose (MTD). A total of 6 participants per cohort were randomized to Compound A. Proposed doses of Compound A were: Participants received Compound A capsules, orally once daily (QD) on Days 1 to 14 after an overnight fast of at least 10 hours. Compound A was administered orally with 240 milliliter (mL) (8 fluid ounces) of water. […]
propertyLabel: Cmax (ng/mL)
Answers are plain numbers, in ng/mL.

Ask: Entry COc1ncc(C)c(-c2ccc3c(c2)[nH]c(=O)c2cnn([C@H]4CCOC4)c23)c1C [Compound A] has what Cmax?
Result: 344

====

# testDescription: Multiple ascending dose study: plasma pharmacokinetics
# Format: in vivo
# conditionInfo: human, po, 400 mg, Day 14, 400 mg QD oral, Japanese, read-out: AUC(0-24 h) Median
propertyLabel: AUC(0-t) (µg·h/mL)
Answers are plain numbers, in µg·h/mL.

Ask: Entry COc1ncc(C)c(-c2ccc3c(c2)[nH]c(=O)c2cnn([C@H]4CCOC4)c23)c1C [Compound A] has what AUC(0-t)?
Result: 43.2

====

# testDescription: Multiple ascending dose study: plasma pharmacokinetics
# Type: in vivo
# conditionInfo: human, po, 400 mg, Day 14, 400 mg QD oral, Non-Japanese, read-out: Cmax Mean (SD)
# Protocol: Four sequential cohorts of healthy participants (≥50 years and ≤85 years old) were treated with multiple ascending doses of Compound A up to the maximum tolerated dose (MTD). A total of 6 participants per cohort were randomized to Compound A. Proposed doses of Compound A were: Participants received Compound A capsules, orally once daily (QD) on Days 1 to 14 after an overnight fast of at least 10 hours. Compound A was administered orally with 240 milliliter (mL) (8 fluid ounces) of water. […]
propertyLabel: Cmax (ng/mL)
Answers are plain numbers, in ng/mL.

Ask: Entry COc1ncc(C)c(-c2ccc3c(c2)[nH]c(=O)c2cnn([C@H]4CCOC4)c23)c1C has what Cmax?
Result: 2820

====

# testDescription: Multiple ascending dose study: plasma pharmacokinetics
# Assay type: in vivo
# conditionInfo: human, po, 50 mg, Day 14, 50 mg QD oral, read-out: AUC(0-24 h) Median
propertyLabel: AUC(0-t) (ng·h/mL)
Answers are plain numbers, in ng·h/mL.

Ask: Entry COc1ncc(C)c(-c2ccc3c(c2)[nH]c(=O)c2cnn([C@H]4CCOC4)c23)c1C [Compound A] has what AUC(0-t)?
Result: 10900

====

# testDescription: Multiple ascending dose study: plasma pharmacokinetics
# Type: in vivo
# conditionInfo: human, po, 5 mg, Day 1, 5 mg QD oral, read-out: Cmax GM (% CV)
# Method: Four sequential cohorts of healthy participants (≥50 years and ≤85 years old) were treated with multiple ascending doses of Compound A up to the maximum tolerated dose (MTD). A total of 6 participants per cohort were randomized to Compound A. Proposed doses of Compound A were: Participants received Compound A capsules, orally once daily (QD) on Days 1 to 14 after an overnight fast of at least 10 hours. Compound A was administered orally with 240 milliliter (mL) (8 fluid ounces) of water. […]
propertyLabel: Cmax (ng/mL)
One number for each entry, in ng/mL.

Ask: Entry COc1ncc(C)c(-c2ccc3c(c2)[nH]c(=O)c2cnn([C@H]4CCOC4)c23)c1C [Compound A] has what Cmax?
Result: 26.3

====

# testDescription: Multiple ascending dose study: plasma pharmacokinetics
# Type: in vivo
# conditionInfo: human, po, 100 mg, Day 14, 100 mg QD oral, read-out: Cmax GM (% CV)
propertyLabel: Cmax (ng/mL)
Answers are plain numbers, in ng/mL.

Ask: Entry COc1ncc(C)c(-c2ccc3c(c2)[nH]c(=O)c2cnn([C@H]4CCOC4)c23)c1C has what Cmax?
Result: 1010

====

# testDescription: Single dose clinical study: plasma Compound A pharmacokinetics
# Type: in vivo, human
# conditionInfo: human, plasma, po, 75 mg, plasma, healthy adults (Parts A,B), single oral 75 mg, fasted; read-out: AUC(0-24 h) GM
propertyLabel: AUC(0-t)
Include the unit after the number when you answer.

Ask: Entry COc1ncc(C)c(-c2ccc3c(c2)[nH]c(=O)c2cnn([C@H]4CCOC4)c23)c1C has what AUC(0-t)?
Result: 3650 ng·h/mL

====

# testDescription: Multiple ascending dose study: plasma pharmacokinetics
# Type: in vivo
# conditionInfo: human, po, 400 mg, Day 14, 400 mg QD oral, Non-Japanese, read-out: AUC(0-inf) Mean (SD)
propertyLabel: AUC(0-inf) (µg·h/mL)
One number for each entry, in µg·h/mL.

Ask: Entry COc1ncc(C)c(-c2ccc3c(c2)[nH]c(=O)c2cnn([C@H]4CCOC4)c23)c1C has what AUC(0-inf)?
Result: 135

====

# testDescription: Single dose clinical study: plasma Compound A pharmacokinetics
# Type: in vivo, human
# conditionInfo: human, plasma, po, 200 mg, plasma, healthy adults (Parts A,B), single oral 200 mg, fasted; read-out: Cmax GM
propertyLabel: Cmax (ng/mL)
Answers are plain numbers, in ng/mL.

Ask: Entry COc1ncc(C)c(-c2ccc3c(c2)[nH]c(=O)c2cnn([C@H]4CCOC4)c23)c1C has what Cmax?
Result: 539

====

# testDescription: Single dose clinical study: plasma Compound A pharmacokinetics
# Format: in vivo, human
# conditionInfo: human, plasma, po, 10 mg, plasma, healthy adults (Parts A,B), single oral 10 mg, fasted; read-out: AUC(0-t) GM
propertyLabel: AUC(0-t)
Include the unit after the number when you answer.

Ask: Entry COc1ncc(C)c(-c2ccc3c(c2)[nH]c(=O)c2cnn([C@H]4CCOC4)c23)c1C [Compound A] has what AUC(0-t)?
Result: 1700 ng·h/mL

====

# testDescription: Single dose clinical study: plasma Compound A pharmacokinetics
# Assay type: in vivo, human
# conditionInfo: human, plasma, po, 25 mg, plasma, healthy adults (Parts A,B), single oral 25 mg, fasted; read-out: tmax Median
propertyLabel: Tmax
Include the unit after the number when you answer.

Ask: Entry COc1ncc(C)c(-c2ccc3c(c2)[nH]c(=O)c2cnn([C@H]4CCOC4)c23)c1C has what Tmax?
Result: 2.65 h

====

# testDescription: Single dose clinical study: plasma Compound A pharmacokinetics
# Assay type: in vivo, human
# conditionInfo: human, plasma, po, 200 mg, plasma, healthy adults (Parts A,B), single oral 200 mg, fasted; read-out: AUC(0-72 h) GM
propertyLabel: AUC(0-t)

Ask: Entry COc1ncc(C)c(-c2ccc3c(c2)[nH]c(=O)c2cnn([C@H]4CCOC4)c23)c1C [Compound A] has what AUC(0-t)?
Result: 16800 ng·h/mL

====

# testDescription: Multiple ascending dose study: plasma pharmacokinetics
# Assay type: in vivo
# conditionInfo: human, po, 400 mg, Day 1, 400 mg QD oral, Non-Japanese, read-out: tmax Median
propertyLabel: Tmax (h)
One number for each entry, in h.

Ask: Entry COc1ncc(C)c(-c2ccc3c(c2)[nH]c(=O)c2cnn([C@H]4CCOC4)c23)c1C has what Tmax?
Result: 1.76

====

# testDescription: Multiple ascending dose study: plasma pharmacokinetics
# Format: in vivo
# conditionInfo: human, po, 400 mg, Day 14, 400 mg QD oral, Non-Japanese, read-out: Cmax GM (% CV)
propertyLabel: Cmax (ng/mL)
Answers are plain numbers, in ng/mL.

Ask: Entry COc1ncc(C)c(-c2ccc3c(c2)[nH]c(=O)c2cnn([C@H]4CCOC4)c23)c1C [Compound A] has what Cmax?
Result: 2740

====

# testDescription: Single dose clinical study: plasma Compound A pharmacokinetics
# Format: in vivo, human
# conditionInfo: human, plasma, po, 100 mg, plasma, Part B 100 mg cohort, single oral 100 mg, Fed (high-fat meal); read-out: AUC (0-30 h) GM (% CV)
propertyLabel: AUC(0-t)
Include the unit after the number when you answer.

Ask: Entry COc1ncc(C)c(-c2ccc3c(c2)[nH]c(=O)c2cnn([C@H]4CCOC4)c23)c1C [Compound A] has what AUC(0-t)?
Result: 8980 ng·h/mL
